test: Antiproliferative activity against human leukemia cells; assay type: functional, cell-based; conditions: Leukemia cell
Quantity Kind: IC50 (µM)
Just the number in µM, nothing appended.

Lookup result for O=Nc1c(-c2c(O)[nH]c3ccc([N+](=O)[O-])cc23)[nH]c2ccccc12 ; measured IC50: 9.2
